Reported normalized growth values for the following compounds.
- Test summary: chemical genetic growth profiling, strain panel (AID 1159580);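 note: tested at 20 µM; growth read once vehicle control cultures reached saturation at 30 °C; 1 = growth at the plate median or of vehicle wells; lower values mean less growth of the strain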
- Measurement conditions: S. cerevisiae deletion strains, growth OD, locus YDR318W, strain mcm21, active compounds read low
Out of some 5,500 compounds screened, about 2,000 (36%) were called active. Inconclusive results (about 18%) are left out. Some of the results follow.

Compound | normalized growth
CCC(C)C(=O)O[C@@H]1C[C@@]2(C)[C@H](c3ccoc3)OC(=O)CC23OC2(C)OC34[C@H](OC(=O)C(C)C)[C@@]3(O)[C@@H](OC(=O)C5(C)OC5C)[C@@]5(C)C[C@]3(O)[C@@](C)([C@H]5CC(=O)OC)C14O2 (stereo not given in full) | 1.01
COc1cc2nc(N(C)CCCNC(=O)C3CCCO3)nc(N)c2cc1OC (stereo not given) | 1.02
CN(C)CCN(Cc1ccccc1)c1ccccn1 | 1.01
O=C1C(Cl)=C(Cl)C(=O)C(Cl)=C1Cl | 0.181
Cc1[nH]c2ccccc2c1CN(C)C | 0.995
